Measured values drawn from patent US20230233569A1 for this set.

This listing pairs compounds with measured pIC50.
# Tested system: KRAS G13C (Homo sapiens, UniProt P01116+P62937, G13C)
# Sequence (P01116 1-169 isoform P01116-2 G13C): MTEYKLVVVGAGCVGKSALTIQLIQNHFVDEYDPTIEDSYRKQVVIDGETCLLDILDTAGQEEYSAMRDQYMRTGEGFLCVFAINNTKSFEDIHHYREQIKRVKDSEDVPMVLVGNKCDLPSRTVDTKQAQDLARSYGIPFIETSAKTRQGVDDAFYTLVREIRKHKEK
# Sequence (P62937 whole entry): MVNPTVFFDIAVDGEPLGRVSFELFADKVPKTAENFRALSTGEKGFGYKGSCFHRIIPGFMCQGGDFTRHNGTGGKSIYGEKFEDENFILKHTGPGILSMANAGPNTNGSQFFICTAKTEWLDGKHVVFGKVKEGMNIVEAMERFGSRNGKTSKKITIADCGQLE
# Procedure details: Disruption of BRAF RBD interaction with Ras (FRET / MOA assay, with Cyclophilin A)
# Type: biochemical
# Test parameters: KRAS G13C; read-out: KRAS G13C FRET data IC50
pIC50: −log10 of the molar value.

| Compound | Result |
| --- | --- |
| CCn1c(-c2cccnc2[C@H](C)OC)c2c3cc(ccc31)-c1cccc(c1)C[C@H](NC(=O)[C@H](C(C)C)N1CC[C@]3(CCN(C(=O)C#C[C@@H]4COCCN4C4COC4)C3)C1=O)C(=O)N1CCC[C@H](N1)C(=O)OCC(C)(C)C2 [Example A565] | 5.00 to 6.00 |

Let us examine a further case.
Task item: Recorded pIC50 of C=CC(=O)N1CC[C@H](C(=O)N(C)[C@H](C(=O)N[C@H]2Cc3cc(O)cc(c3)-c3ccc4c(c3)c(c(-c3cccc(CN(C)C)c3)n4CC)CC(C)(C)COC(=O)[C@@H]3CCCN(N3)C2=O)C(C)C)C1 [Example A030] , please.
Reply: 5.00 to 6.00
